- Tested on: Hepatitis C virus NS3 helicase
- assay-summary: inhibitors of HCV NS3 helicase, primary screen, biochemical, Cy5 molecular beacon fluorescence (AID 1800)
- setup-conditions: NS3 helicase DNA unwinding, at 10.9 µM
Among all 290,000 compounds or so, about 1,600 (0.55%) were called active.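 How the source made its calls: active means inhibition above the mean of all tested compounds plus 3 SD, set per campaign (cut at about 35% in these data); inactive means the rest.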 This is one part of a sample in which actives are shown more often than they occur.
Classes used: active, inactive

INSERT INTO assay_data (structure_smiles, test_target, label) VALUES
  ('O=C(CCCN1C(=O)/C(=C\c2ccccc2)SC1=S)Nc1ccccc1O', 'Hepatitis C virus NS3 helicase', 'inactive'),
  ('COc1ccc(CNC(=O)c2nnn(CC(=O)Nc3cc(C)cc(C)c3)c2N)cc1', 'Hepatitis C virus NS3 helicase', 'inactive'),
  ('COc1cccc(CNC(=O)c2nnn(CC(=O)Nc3cc(Cl)ccc3C)c2N)c1', 'Hepatitis C virus NS3 helicase', 'active'),
  ('Cc1nn(CC(=O)Nc2ccc(F)cc2)c(=O)c2ccccc12', 'Hepatitis C virus NS3 helicase', 'inactive'),
  ('O=C(CCCN1C(=O)/C(=C/c2ccco2)SC1=S)Nc1ccccc1', 'Hepatitis C virus NS3 helicase', 'inactive');

====

- Test system: Hepatitis C virus NS3 helicase
- assay-summary: inhibitors of HCV NS3 helicase, primary screen, biochemical, Cy5 molecular beacon fluorescence (AID 1800)
- setup-conditions: NS3 helicase DNA unwinding, at 10.9 µM
Out of some 290,000 compounds screened, about 1,600 (0.55%) were called active.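 Rule for the calls: active = inhibition above the mean of all tested compounds plus 3 SD, set per campaign (cut at about 35% in these data); inactive = the rest.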 What follows is part of a selection rich in actives, with near analogues and random picks from the rest.
Labels: TRUE = active, FALSE = inactive

INSERT INTO results (molecule, label) VALUES
  ('CC(C)c1ccc(C2C(C(=O)c3ccco3)=C(O)C(=O)N2CC2CCCO2)cc1 (stereo unspecified)', 'TRUE'),
  ('COC(=O)COc1ccc2c(c1C)O/C(=C\c1ccco1)C2=O', 'TRUE'),
  ('COC(=O)C1=C(C)N(c2ccc(Br)cc2)C(=O)/C1=C\c1ccco1', 'FALSE'),
  ('COc1ccc(N(C(=O)c2snc(C(N)=O)c2N)C(C(=O)NC2CCCC2)c2ccc(C)o2)c(OC)c1 (stereo unspecified)', 'FALSE'),
  ('O=C(CCC(=O)n1ncc2ccccc21)NCc1ccccc1Cl', 'FALSE'),
  ('O=C(CNc1cccc(S(=O)(=O)N2CCCCC2)c1)Nc1ccccc1F', 'FALSE'),
  ('CCc1nnc(NC(=O)/C=C/c2ccc(C)o2)s1', 'FALSE'),
  ('COc1ccc(/C=C(/NC(=O)c2ccccc2)C(=O)Nc2cccc(C(=O)O)c2)cc1', 'FALSE'),
  ('COc1ccc(C(=O)CC(=O)C(=O)Nc2cc([N+](=O)[O-])ccc2OC)cc1', 'FALSE'),
  ('Cc1ccc(/C=C/C(=O)Nc2cc(S(=O)(=O)N3CCCCCC3)ccc2OCC(F)(F)F)o1', 'FALSE'),
  ('COc1ccc(/C=C(\NC(=O)c2ccc(OCC(C)C)cc2)C(=O)OCc2ccco2)cc1', 'TRUE'),
  ('COc1ccc(C)cc1NC(=O)NCCCCc1ccccc1', 'FALSE'),
  ('COc1cc(NS(=O)(=O)c2ccc(NC(=S)NC(=O)c3ccccc3)cc2)nc(OC)n1', 'FALSE'),
  ('COc1cccc(C(=O)CC(=O)C(=O)Nc2ccc([N+](=O)[O-])cc2C)c1', 'TRUE'),
  ('CCC(C)NC(=O)C1c2ccccc2C(=O)N1Cc1ccccc1 (stereo unspecified)', 'FALSE'),
  ('COc1ccc(/C=C(/NC(=O)c2ccco2)C(=O)Nc2ccc(C(C)=O)cc2)cc1', 'FALSE'),
  ('Cc1ccc(Nc2c3c(nc4ccccc24)CCC3)cc1', 'FALSE'),
  ('COc1ccc(-c2cc(C(=O)N3CCN(Cc4ccc5c(c4)OCO5)CC3)on2)cc1OC', 'FALSE'),
  ('O=C(Nc1ccc2nccnc2c1)c1ccco1', 'FALSE'),
  ('O=C(CN1C(=O)S/C(=C\c2ccccc2Cl)C1=O)NC1C=CS(=O)(=O)C1 (stereo unspecified)', 'FALSE'),
  ('CC(=O)c1ccc(N2CCN(S(=O)(=O)c3ccc4c(c3)CC(=O)N4C)CC2)cc1', 'FALSE');
